I'd appreciate it if you could supply TGI values for the items below.
Test system: EKVX NSCLC
Assay: NCI tumour cell line growth inhibition, 48 h

Give me measured TGI, please, for this compound: Cc1ccc2nc(NC(=O)C(=O)CC(=O)c3cccc4ccccc34)sc2c1
> 100 µM

Give me measured TGI, please, for this compound: Cc1c(Cl)cccc1NC(=O)c1sc2nc3c(cc2c1N)CCCC3
> 100 µM

Give me measured TGI, please, for this compound: COC1CC(OC2C(C)OC(OC3C(C)OC(OC4C(C)OC(O[C@H]5CC[C@@]6(C)C(=CC[C@]7(O)[C@@H]6C[C@@H](O)[C@@]6(C)[C@]7(O)CC[C@@]6(O)C(C)=O)C5)CC4OC)CC3OC)CC2OC)OC(C)C1O (stereo partly drawn)
> 12.5 µM

Give me measured TGI, please, for this compound: CN1CCN([C@H]2C[C@H]3[C@@H]4CC=C5C[C@@H](O)CC[C@]5(C)[C@H]4CC[C@]3(C)[C@H]2O)CC1
> 100 µM

Give me measured TGI, please, for this compound: O=S(=O)(O)c1cc(S(=O)(=O)O)c2c(N=Nc3ccc(N=Nc4ccccc4)cc3)c(O)ccc2c1
> 100 µM

Give me measured TGI, please, for this compound: O=C1C=C(N2CCN(CCOCCO)CC2)C(=O)c2c(O)ccc(O)c21
33.9 µM

Give me measured TGI, please, for this compound: C/C(CC(=O)Nc1cccc([N+](=O)[O-])c1)=N\NC(=O)CC#N
> 100 µM

Give me measured TGI, please, for this compound: O=[N+]([O-])C(C=C(n1nnc2ccccc21)n1nnc2ccccc21)=C(n1nnc2ccccc21)n1nnc2ccccc21
> 100 µM

* * *

I'd appreciate it if you could supply TGI values for the items below.
Test system: ACHN renal
Assay: NCI tumour cell line growth inhibition, 48 h

Give me measured TGI, please, for this compound: O=C(NOCCO)c1cc(CN2OCCCC2=O)c(F)c(F)c1Nc1ccc(I)cc1F
> 100 µM

Give me measured TGI, please, for this compound: N#CC(C(=O)CCCC(=O)Nc1ccc(Cl)cc1Cl)c1ccc(Cl)cc1 (centres undefined)
> 100 µM

Give me measured TGI, please, for this compound: O=C1C=C(N2CCN(CCOCCO)CC2)C(=O)c2c(O)ccc(O)c21
20.1 µM

Give me measured TGI, please, for this compound: Cc1ccc(S(=NS(=O)(=O)c2ccc(C)cc2)c2ccc(C)cc2)cc1
> 100 µM

* * *

I'd appreciate it if you could supply TGI values for the items below.
System: SK-MEL-28 melanoma
Experiment: NCI tumour cell line growth inhibition, 48 h
Where a SMILES comes first, the peptide text is derived from it. The star is where a group is joined. Trt = c1ccc(C(c2ccccc2)(c2ccccc2)*)cc1; Cbz = O=C(OCc1ccccc1)*

Give me measured TGI, please, for this molecule: CC(C)c1ccc(/C=C2\CSCC3=C2N=C2SCC(=O)N2C3c2ccc(C(C)C)cc2)cc1 (stereo not given)
> 100 µM

Give me measured TGI, please, for this molecule: CN1CCN([C@H]2C[C@H]3[C@@H]4CC=C5C[C@@H](O)CC[C@]5(C)[C@H]4CC[C@]3(C)[C@H]2O)CC1
> 57.3 µM

Give me measured TGI, please, for this molecule: CSCCCNC(=O)[C@H](CSC)NC(=O)c1csc(CCNC(=O)[C@@H](NSc2ccccc2[N+](=O)[O-])C(C)O)n1 (stereo not given in full)
> 100 µM

Give me measured TGI, please, for this molecule: CN1CN(C(=O)N2CN(C)C(=O)N(C)C2)CN(C)C1=O
> 100 µM

Give me measured TGI, please, for this molecule: CCCCCCCCCCCCCCCC1(OC)C[N+](C)(C)CCO1 (stereo not given)
6.33 µM

Give me measured TGI, please, for this molecule: CCOC(=O)C(C)N1C(=O)c2ccccc2S1(=O)=O (stereo not given)
> 100 µM

Give me measured TGI, please, for this molecule: COCCN1C(=O)C2c3[nH]c4ccccc4c3C3CCC(C(C)(C)C)CC3C2C1=O (stereo not given)
32.3 µM

Give me measured TGI, please, for this molecule: C[C@H](CCC(=O)NCC(=O)O)[C@H]1CC[C@H]2[C@@H]3[C@H](O)C[C@@H]4C[C@H](O)CC[C@]4(C)[C@H]3CC[C@]12C
> 100 µM

Give me measured TGI, please, for this molecule: COc1ccc(-c2nc(C(=O)c3ccccc3)n(CC(=O)c3ccc(Cl)cc3)c2-c2ccc(OC)cc2)cc1
> 100 µM

Give me measured TGI, please, for this molecule: CC(C)(C)C1=C(Br)C(OC(=O)C(F)(F)F)(C(C)(C)C)OP1(=O)c1ccccc1 (stereo not given)
> 100 µM

Give me measured TGI, please, for this molecule: CCCCNC1=C(C(=O)OCC)/C(=N/NC(=O)c2ccccc2O)CO1
> 100 µM

Give me measured TGI, please, for this molecule: Cc1ccc(S(=O)(=O)NC(CO)C(=O)O)cc1 (stereo not given)
> 100 µM

Give me measured TGI, please, for this molecule: COC(=O)C(CSC(c1ccccc1)(c1ccccc1)c1ccccc1)NC(=O)C(CC(N)=O)NC(=O)OCc1ccccc1 (stereo not drawn) (Cbz-Asn-Cys(Trt)-OMe; configuration not given here)
15.4 µM

Give me measured TGI, please, for this molecule: O=c1[nH]c2ccc(CC(=S)N3CCCCC3)cc2s1
> 100 µM

Give me measured TGI, please, for this molecule: O=C(/C=C/c1ccco1)c1ccc(Nc2nc(Nc3ccc(F)cc3)nc(Nc3ccc(F)cc3)n2)cc1
44.3 µM

Give me measured TGI, please, for this molecule: COc1cc(C(C#N)NNc2nc(C)cc(=O)[nH]2)cc(OC)c1OC (stereo not given)
> 100 µM

Give me measured TGI, please, for this molecule: O=C(/C=C/c1cccc2ccccc12)Nc1ncc(Cc2ccccc2)s1
> 100 µM

Give me measured TGI, please, for this molecule: CN1CCN(c2ccc3nc(-c4ccc(OCCCCN5CCN(CCCCN6C(=O)c7cccc8cccc(c78)C6=O)CC5)cc4)[nH]c3c2)CC1
49.9 µM

Give me measured TGI, please, for this molecule: c1ccc(-c2nnc3nn4c(-c5ccccc5)cnnc4c3c2-c2ccccc2)cc1
> 100 µM

Give me measured TGI, please, for this molecule: O=C(O)CCc1nc(-c2ccccc2-n2cccc2)no1
> 100 µM

Give me measured TGI, please, for this molecule: COc1cccc2c1cc1c3c(cc4c(c32)OCO4)C(=O)N1
67.2 µM

Give me measured TGI, please, for this molecule: COc1ccc(-n2cnc3c(NC(Cc4ccccc4)C(=O)O)ncnc32)cc1 (stereo not given)
> 100 µM

Give me measured TGI, please, for this molecule: CN/N=C(\C(=O)Nc1ccc(C)c(C)c1)C(C(=O)OC)c1nc2ccc([N+](=O)[O-])cc2[nH]c1=O (stereo not given)
> 100 µM

Give me measured TGI, please, for this molecule: O=c1cc(N2CCCC2)[nH]c(=O)n1-c1ccc(Cl)cc1
> 100 µM

Give me measured TGI, please, for this molecule: O=C1C=C(N2CCN(CCOCCO)CC2)C(=O)c2c(O)ccc(O)c21
32.7 µM

Give me measured TGI, please, for this molecule: CC/C(N)=N\NC(=O)OC(C)(C)C
> 100 µM

Give me measured TGI, please, for this molecule: O=C1N(c2ccccc2)C(=S)/C(=C/c2ccc(Cl)cc2)N1c1ccc(Cl)cc1
> 100 µM

Give me measured TGI, please, for this molecule: CN(C)CCNC(=O)c1c(O)ccc2c1c1c(n2CCc2ccccc2)C(=O)c2ccccc2C1=O
4.57 µM

Give me measured TGI, please, for this molecule: C/C(CC(=O)Nc1cccc([N+](=O)[O-])c1)=N\NC(=O)CC#N
> 100 µM

Give me measured TGI, please, for this molecule: Oc1ccc(Cl)cc1/C=N\NC(=S)N/N=C/c1cc(Cl)ccc1O
> 100 µM

Give me measured TGI, please, for this molecule: COc1cc2c(cc1OCCCOc1ccc(-c3nc4ccc(N5CCN(C)CC5)cc4[nH]3)cc1)N=C[C@@H]1CCCN1C2=O
54.5 µM

Give me measured TGI, please, for this molecule: CCOC(=O)C(C(=O)COC(C)(C)C)[C@@H]1C=C[C@H](OC(C)=O)C1 (stereo not given in full)
> 100 µM

Give me measured TGI, please, for this molecule: O=C(NCCCCCN1CCC2(CCCCC2)CC1)C(C1CCCCC1)C1CCCCC1
3.64 µM

Give me measured TGI, please, for this molecule: O=P(O)(O)CN1CCNCCN(CP(=O)(O)O)CC1
> 100 µM

Give me measured TGI, please, for this molecule: Cc1c(Cl)cccc1NC(=O)c1sc2nc3c(cc2c1N)CCCC3
> 100 µM

Give me measured TGI, please, for this molecule: CNC(c1ccncc1)C(NC)c1ccncc1 (stereo not given)
> 100 µM

Give me measured TGI, please, for this molecule: COc1ccc(C2=Nc3c/c(=C\c4c(O)[nH]c5cc(Cl)ccc45)ccc3=N2)cc1
19.9 µM

Give me measured TGI, please, for this molecule: CC(C)=NOC(=O)Nc1cccc2c1OCO2
> 100 µM

Give me measured TGI, please, for this molecule: O=S(=O)(O)SCCNCCCCCC1CCCCC1
18.3 µM

Give me measured TGI, please, for this molecule: C#CCOCn1cnc2ncnc(N)c21
> 100 µM
